subject-of-test: Fibroblast growth factor receptor 2 (Homo sapiens) (UniProt P21802)
Sequence (P21802 22-821 limits assumed): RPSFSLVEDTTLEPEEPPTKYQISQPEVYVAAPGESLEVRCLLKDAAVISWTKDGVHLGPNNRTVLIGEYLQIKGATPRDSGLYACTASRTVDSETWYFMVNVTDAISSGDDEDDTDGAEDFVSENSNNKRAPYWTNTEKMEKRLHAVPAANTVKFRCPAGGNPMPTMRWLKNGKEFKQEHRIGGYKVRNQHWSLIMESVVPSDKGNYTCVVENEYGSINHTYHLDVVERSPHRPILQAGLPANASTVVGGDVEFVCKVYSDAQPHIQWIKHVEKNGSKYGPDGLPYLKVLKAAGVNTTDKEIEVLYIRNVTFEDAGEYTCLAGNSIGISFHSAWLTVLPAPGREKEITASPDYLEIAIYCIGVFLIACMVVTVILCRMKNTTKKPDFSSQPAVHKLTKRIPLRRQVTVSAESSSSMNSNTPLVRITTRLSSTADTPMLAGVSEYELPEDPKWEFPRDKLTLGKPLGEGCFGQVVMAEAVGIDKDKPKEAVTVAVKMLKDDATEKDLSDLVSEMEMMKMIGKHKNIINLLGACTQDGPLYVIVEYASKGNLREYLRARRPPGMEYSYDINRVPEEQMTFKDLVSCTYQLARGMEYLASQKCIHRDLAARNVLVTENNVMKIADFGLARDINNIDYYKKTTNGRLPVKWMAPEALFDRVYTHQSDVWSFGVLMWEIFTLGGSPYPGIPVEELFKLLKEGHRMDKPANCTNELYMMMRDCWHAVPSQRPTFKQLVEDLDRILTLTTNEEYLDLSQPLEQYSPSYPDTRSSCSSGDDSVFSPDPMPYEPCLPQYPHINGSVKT
test-context: at 1 µM;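 further: reported figure is a mean percent inhibition of FGFR2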
measured-endpoint: inhibition

1. Cc1nc(-c2ccccc2)n2nc(NCCCN3CCOCC3)ncc12: 11.8%
2. CN(C)C(=O)O[C@H]1CN[C@H](C#Cc2cc3ncnc(Nc4ccc(OCc5cccc(F)c5)c(Cl)c4)c3s2)C1: 7.78%
3. COc1ccc2ncnc(Nc3ccc(OCc4ccccc4)cc3)c2c1: 2.56%
4. C[C@@H](Oc1cc(-n2cnc3ccc(OCC4CCN(C)CC4)cc32)sc1C(N)=O)c1ccccc1C(F)(F)F: 7.56%
5. CN(c1ccc(NC(=O)Nc2ccc(OC(F)(F)F)cc2)cc1)c1ccnc(Nc2cccc(S(N)(=O)=O)c2)n1: 53.9%
6. CCn1c(-c2nonc2N)nc2ccc(F)cc21: 4.55%
7. ON=C1CCc2cc(-c3nc(C4CCNCC4)[nH]c3-c3ccncc3)ccc21: 5.39%
8. CS(=O)(=O)CCNCc1nc(-c2ccc3ncnc(Nc4ccc(OCc5cccc(C(F)(F)F)c5)cc4)c3c2)cs1: 5.8%
9. COc1ccc(-c2nn3ncccc3c2-c2ccnc(Nc3cccc(C(F)(F)F)c3)n2)cc1: 0.17%
10. Cc1ccc(NC(=O)CC2CC2)cc1-c1ccc(C(=O)NCC2CC2)cc1: 4.24%
